This collection of values is drawn from paper PMC10770331.

EXPERIMENTAL_SYSTEM: VirB (Shigella flexneri, UniProt P0A247)
Construct: purified recombinant wild-type VirB, His6-SUMO tag removed; encoded on virulence plasmid pINV
Sequence (P0A247 whole entry): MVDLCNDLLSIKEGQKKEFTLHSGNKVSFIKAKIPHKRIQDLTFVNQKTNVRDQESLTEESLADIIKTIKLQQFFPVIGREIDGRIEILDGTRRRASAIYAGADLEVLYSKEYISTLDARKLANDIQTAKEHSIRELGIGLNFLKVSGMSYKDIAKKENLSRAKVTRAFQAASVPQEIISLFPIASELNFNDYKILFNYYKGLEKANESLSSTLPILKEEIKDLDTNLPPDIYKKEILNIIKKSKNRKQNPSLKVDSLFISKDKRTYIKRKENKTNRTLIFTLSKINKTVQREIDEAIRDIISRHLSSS
TEST: isothermal titration calorimetry (MST KD […])
Format: binding
PROPERTY_MEASURED: Kd

Entry under review: Nc1ccn([C@@H]2O[C@H](COP(=O)(O)OP(=O)(O)O)[C@@H](O)[C@H]2O)c(=O)n1 [CDP] . Reported Kd?
~91 µM
